Tested on: MALME-3M melanoma
Assay: NCI tumour cell line growth inhibition, 48 h
Please go through the items and note down their TGI.

- CC(C)C(=O)Nc1cc(C(F)(F)F)ccc1[N+](=O)[O-]: > 100 µM
- CCN(CC)CC(O)CNc1c2ccc([N+](=O)[O-])cc2nc2cc(OC)c(OC)cc12 (stereo unspecified): 0.573 µM
- N#CC(Cc1ccccc1)N(CCC1=CCCCC1)Cc1ccccc1 (stereo unspecified): > 100 µM

I'm hoping you can list TGI for every compound here, please.
1. COC(=O)c1ccc(N=NN(C)COc2ccc(Br)cc2)cc1
2. C[As](C)SCC(COC(=O)C(Cl)c1ccccc1)OC(=O)C(Cl)c1ccccc1 (stereo unspecified)
3. CC(=O)OC[C@@H](COC(=O)/C=C/c1ccc(O)cc1)OC1OC(CO)C(O)C(O)C1O (stereo partly specified)
4. N#Cc1c(N2CCC(O)C2)c2ccccc2n2c1nc1ccccc12 (stereo unspecified)
5. Cc1c2c(c(O)c3c(O)cccc13)C(=O)C1(O)C(O)=C(C(=O)NCNc3ccc(C(N)=O)cn3)C(=O)C(N(C)C)C1C2 (stereo unspecified)
6. CC(C)=CCC/C(C)=C/CC/C(C)=C/CSc1ccccc1C(=O)O
7. S=C(Nc1ccc(-c2nc3ccccc3[nH]2)cc1)Nc1ccc(-c2nc3ccccc3[nH]2)cc1
8. COC(=O)C1(C#N)C(C)(C)N=C(c2ccccc2)C12CCCCC2 (stereo unspecified)

RESULT:
> 100 µM
1.44 µM
> 100 µM
> 100 µM
> 100 µM
66.2 µM
> 100 µM
> 100 µM

I'm hoping you can list TGI for every compound here, please.
1. Cc1ccc(S(=O)(=O)Oc2nc3ccccc3nc2OS(=O)(=O)c2ccc(C)cc2)cc1
2. NC(=O)Cc1nc2c(N)ncnc2n1C1OC(CO)C(O)C1O (stereo unspecified)
3. O=c1c(Br)cc2nc3ccccc3sc-2c1Br
4. CC(=O)C1C(c2ccc(N(C)C)cc2)c2cc3c(cc2OC1(C)O)OCO3 (stereo unspecified)
5. COC1C(O)C(n2ncc3c(SC)nc(SC)nc32)OC1C(O)CO (stereo unspecified)

RESULT:
1: 35 µM; 2: > 100 µM; 3: > 100 µM; 4: > 100 µM; 5: > 100 µM

I'm hoping you can list TGI for every compound here, please.
1. CC(=O)Nc1ccc2c3c(cc(O)c2c1)N(C(=O)CCCCCCC(=O)N1CC(CCl)c2c1cc(O)c1cc(NC(C)=O)ccc21)CC3CCl (stereo unspecified)
2. O=C(c1ccccc1)C1OC12C(=O)Nc1c(Cl)cc(Cl)cc12 (stereo unspecified)
3. CCOC(=O)C1=CCOc2cc(N(C)C)ccc21
4. O=c1cc(-c2cccc3c2Sc2ccccc2S3)oc(N2CCOCC2)c1
5. CC(C)N=C(N)NC#N

RESULT:
1: 0.0233 µM; 2: > 100 µM; 3: > 100 µM; 4: 24.4 µM; 5: > 100 µM

###

Test system: U251 CNS
Assay: NCI tumour cell line growth inhibition, 48 h
Readout Type: GI50

As a guide, the following entries are already answered.
• CC(=O)C1=C(O)C=C2Oc3c(C(=O)/C=C/c4c(Cl)cccc4Cl)c(O)c(C)c(O)c3[C@]2(C)C1=O = 0.754 µM
• CC(C)=CCC[C@](C)(O)[C@H]1CC[C@]2(C)[C@@H]1CC[C@@H]1[C@@]3(C)CC/C(=N/O)C(C)(C)[C@@H]3CC[C@]12C = 12.8 µM
• C[n+]1c2cc(N)ccc2cc2ccc(N)cc21 = 733 nM [middle of 4 runs]
• CNC(=O)c1ccccc1Nc1nc(Nc2cc(OC)c(OC)c(OC)c2)ncc1Br = 0.0426 µM
• Clc1ccc(-c2c3c(nn2-c2ccccn2)CCc2ccccc2-3)cc1Cl = > 100 µM
• CS(=O)(=O)CCc1cccc(C(=O)c2cnn(-c3ccc(F)cc3)c2N)c1 = > 25 µM
• Cc1nnc(-c2cccc(-c3ccc(C(=O)NCC4CC4)cc3)c2)o1 = > 25 µM
• NCCOCCOCCNc1nc(-c2ccccc2)nc(N2CCN(c3ccccn3)CC2)n1 = 12.1 µM

I'm hoping you can list GI50 for every compound here, please.
1. COc1cc(C2SCC(=O)N2c2ncc(C)s2)cc(OC)c1OC (stereo not given)
2. C#CCSc1cc(Cl)c(C)cc1S(=O)(=O)Nc1nc2ccccc2o1
3. COc1cc(NCCCN=C(N)NC(N)=NC(C)C)c2ncccc2c1
4. CCOC(=O)c1cc2c(cc1Cl)SC(N(c1ccc(OC)cc1)S(=O)(=O)c1ccc(Cl)cc1)=NS2(=O)=O
5. COc1cc(C(=O)N2CCN(c3ncnc4ccccc34)CC2)c(N)cc1OCc1ccccc1

RESULT:
1. 18.1 µM
2. 38.5 µM
3. 6.41 µM
4. 29.1 µM
5. 11.3 µM
